- system.tested: wild-type human cardiac sodium channel, hNav1.5 (late sodium current) in HEK293 cells (Homo sapiens, UniProt Q14524)
- Sequence (Q14524 whole entry): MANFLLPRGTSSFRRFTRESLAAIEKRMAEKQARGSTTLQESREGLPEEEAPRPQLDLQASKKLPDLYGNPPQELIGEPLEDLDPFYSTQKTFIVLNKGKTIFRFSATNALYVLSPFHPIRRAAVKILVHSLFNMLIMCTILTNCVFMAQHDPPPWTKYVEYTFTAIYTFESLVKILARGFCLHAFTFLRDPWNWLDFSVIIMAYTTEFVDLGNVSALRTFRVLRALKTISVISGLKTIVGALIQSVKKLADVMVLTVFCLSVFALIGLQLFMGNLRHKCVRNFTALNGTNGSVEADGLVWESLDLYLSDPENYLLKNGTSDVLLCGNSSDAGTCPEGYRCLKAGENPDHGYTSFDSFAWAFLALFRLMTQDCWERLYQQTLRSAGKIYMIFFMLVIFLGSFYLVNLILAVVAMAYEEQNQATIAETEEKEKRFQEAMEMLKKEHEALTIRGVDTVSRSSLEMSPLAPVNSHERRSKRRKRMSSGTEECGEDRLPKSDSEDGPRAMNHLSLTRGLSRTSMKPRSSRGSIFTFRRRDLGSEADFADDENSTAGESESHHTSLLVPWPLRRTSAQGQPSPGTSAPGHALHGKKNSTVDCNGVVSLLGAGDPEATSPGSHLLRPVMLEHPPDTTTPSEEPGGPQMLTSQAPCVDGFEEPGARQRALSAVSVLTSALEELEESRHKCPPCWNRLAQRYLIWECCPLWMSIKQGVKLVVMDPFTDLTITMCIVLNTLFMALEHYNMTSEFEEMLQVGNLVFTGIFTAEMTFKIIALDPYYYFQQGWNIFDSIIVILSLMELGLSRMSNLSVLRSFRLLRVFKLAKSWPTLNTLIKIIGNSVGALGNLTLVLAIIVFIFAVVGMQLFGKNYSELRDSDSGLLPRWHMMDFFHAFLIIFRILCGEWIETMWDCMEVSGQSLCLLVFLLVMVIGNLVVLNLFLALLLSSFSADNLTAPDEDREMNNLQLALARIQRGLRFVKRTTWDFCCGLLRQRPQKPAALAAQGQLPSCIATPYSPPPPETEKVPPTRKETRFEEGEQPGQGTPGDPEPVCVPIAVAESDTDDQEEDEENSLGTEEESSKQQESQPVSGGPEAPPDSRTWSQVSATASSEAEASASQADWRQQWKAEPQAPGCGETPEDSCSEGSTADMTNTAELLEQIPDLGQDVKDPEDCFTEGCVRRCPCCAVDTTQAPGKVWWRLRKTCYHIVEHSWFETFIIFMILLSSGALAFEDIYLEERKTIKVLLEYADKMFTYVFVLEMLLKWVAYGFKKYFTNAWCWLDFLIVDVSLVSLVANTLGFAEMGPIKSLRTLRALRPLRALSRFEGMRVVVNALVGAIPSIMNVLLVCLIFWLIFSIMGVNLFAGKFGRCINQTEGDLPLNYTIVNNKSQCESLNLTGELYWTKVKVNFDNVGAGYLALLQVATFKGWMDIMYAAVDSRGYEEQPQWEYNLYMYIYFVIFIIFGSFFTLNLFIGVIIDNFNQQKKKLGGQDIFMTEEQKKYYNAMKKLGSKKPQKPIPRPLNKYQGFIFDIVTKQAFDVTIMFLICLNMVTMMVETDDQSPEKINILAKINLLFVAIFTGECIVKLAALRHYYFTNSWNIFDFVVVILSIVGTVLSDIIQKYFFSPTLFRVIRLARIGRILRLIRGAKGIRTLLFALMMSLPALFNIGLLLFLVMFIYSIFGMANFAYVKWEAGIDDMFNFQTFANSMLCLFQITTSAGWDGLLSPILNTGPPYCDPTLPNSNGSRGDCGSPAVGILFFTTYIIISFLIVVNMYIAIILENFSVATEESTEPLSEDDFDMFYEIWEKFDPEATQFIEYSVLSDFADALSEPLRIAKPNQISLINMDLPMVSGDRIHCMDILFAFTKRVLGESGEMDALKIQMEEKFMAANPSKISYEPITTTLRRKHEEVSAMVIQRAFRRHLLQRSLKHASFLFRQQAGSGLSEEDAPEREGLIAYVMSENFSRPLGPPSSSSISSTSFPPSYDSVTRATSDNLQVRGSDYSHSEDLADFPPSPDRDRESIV
- procedure.details: Late INa screening assay (automated whole-cell patch clamp, PatchXpress)
- Type: cell-based
- recorded.conditions: HEK293, compound at 1 μM; late INa generated with 10 μM Tefluthrin (or 50 nM ATX II); HEK293 hNav1.5; read-out: Late INa 1 μM (percent block of late INa)
Outcome label depends on inhibition at 1 µM relative to 30%: at/above gives YES, below gives NO.

{"molecule": "COc1cnc(OCCn2nc3ccc(-c4ccc(OC(F)(F)F)cc4)cn3c2=O)nc1", "category": "YES"}
{"molecule": "O=c1n(Cc2nc(Cc3ccccc3)no2)nc2ccc(-c3ccc(OC(F)(F)F)cc3)cn12", "category": "NO"}
{"molecule": "Cc1noc(Cn2nc3ccc(-c4cc(F)c(Oc5ccccc5)c(F)c4)cn3c2=O)n1", "category": "NO"}
{"molecule": "Cc1cc(Cn2nc3ccc(-c4ccc(OC(F)(F)F)cc4)cn3c2=O)on1", "category": "NO"}
{"molecule": "O=c1n(Cc2ccc(OC(F)(F)F)cc2)nc2ccc(-c3ccc(OC(F)(F)F)cc3)cn12", "category": "NO"}
{"molecule": "O=c1n(CCCc2ccc(F)c(-c3ncco3)c2)nc2ccc(-c3ccc(OC(F)(F)F)cc3)cn12", "category": "NO"}
{"molecule": "O=c1n(CC(COc2ccccc2Cl)Oc2ncccn2)nc2ccc(-c3ccc(OC(F)(F)F)cc3)cn12 (centres unmarked)", "category": "NO"}
{"molecule": "CCOc1ccccc1OCc1nc(Cn2nc3ccc(-c4ccc(OC(F)(F)F)cc4)cn3c2=O)no1", "category": "NO"}
{"molecule": "O=c1n(Cc2noc(COc3ccccn3)n2)nc2ccc(-c3ccc(OC(F)(F)F)cc3)cn12", "category": "NO"}
{"molecule": "CO[C@@H](COc1ccccc1Cl)Cn1nc2ccc(-c3ccc(OC(F)(F)F)cc3)cn2c1=O", "category": "YES"}
{"molecule": "O=c1n(CC(F)(F)F)nc2ccc(-c3ccc(OC(F)(F)F)cc3)cn12", "category": "NO"}
{"molecule": "Cc1nc(Cn2nc3ccc(-c4ccc(Oc5ccc(F)cc5)cc4)cn3c2=O)no1", "category": "YES"}
{"molecule": "O=C1C(Oc2ccccc2)CCN1CCn1nc2ccc(-c3ccc(OC(F)(F)F)cc3)cn2c1=O (centres unmarked)", "category": "NO"}
{"molecule": "O=c1n(CCOc2ccccc2)nc2ccc(-c3ccc(OC(F)(F)F)cc3)cn12", "category": "YES"}
{"molecule": "CCc1noc(C(C)n2nc3ccc(-c4ccc(OC(F)(F)F)cc4)cn3c2=O)n1 (centres unmarked)", "category": "NO"}
{"molecule": "Cn1nc(C2CC2)cc1Cn1nc2ccc(-c3ccc(OC(F)(F)F)cc3)cn2c1=O", "category": "NO"}
{"molecule": "CC(Cn1nc2ccc(-c3ccc(OC(F)(F)F)cc3)cn2c1=O)c1ccccn1 (centres unmarked)", "category": "YES"}
{"molecule": "Cc1nccnc1CCn1nc2ccc(-c3ccc(OC(F)(F)F)cc3)cn2c1=O", "category": "NO"}
{"molecule": "O=c1n(CCOc2cccnn2)nc2ccc(-c3ccc(OC(F)(F)F)cc3)cn12", "category": "NO"}
{"molecule": "O=c1n(Cc2coc(C3CC3)n2)nc2ccc(-c3ccc(OC(F)(F)F)cc3)cn12", "category": "NO"}
{"molecule": "O=c1n(CCCOc2ccccc2Cl)nc2ccc(-c3ccc(OC(F)(F)F)cc3)cn12", "category": "YES"}
{"molecule": "Cc1cccnc1CCn1nc2ccc(-c3ccc(OC(F)(F)F)cc3)cn2c1=O", "category": "YES"}
{"molecule": "O=c1n(Cc2ccc3nonc3c2)nc2ccc(-c3ccc(OC(F)(F)F)cc3)cn12", "category": "NO"}
{"molecule": "O=C1c2ccccc2C(=O)N1Cc1nc(Cn2nc3ccc(-c4ccc(OC(F)(F)F)cc4)cn3c2=O)no1", "category": "NO"}
{"molecule": "Cc1nc(Cn2nc3ccc(-c4ccc(C(F)(F)F)cc4)cn3c2=O)no1", "category": "NO"}
{"molecule": "O=c1n(CCCc2ccc(F)cc2)nc2ccc(-c3ccc(OC(F)(F)F)cc3)cn12", "category": "NO"}
{"molecule": "COc1ccccc1-c1nc(Cn2nc3ccc(-c4ccc(OC(F)(F)F)cc4)cn3c2=O)no1", "category": "NO"}
{"molecule": "O=c1n(Cc2nnc(C3CC3)s2)nc2ccc(-c3ccc(OC(F)(F)F)cc3)cn12", "category": "NO"}
{"molecule": "O=c1n(Cc2nonc2-c2ccccc2)nc2ccc(-c3ccc(OC(F)(F)F)cc3)cn12", "category": "NO"}
